experiment: yeast display, Sf9 membrane polyspecificity reagent, FACS + sequencing; frameworks hold sequencing errors
property_label: polyreactivity (PSR sort gate)

residues=QVQLVESGGGLVQAGGSLRLSCAASGSTFGFNVMGWYRQAPGKERELVAVITSDGNTYYADSVKGRFTISRDNAKNTVYFQMNSLIPEDTAVYYCAVSELGTPYGYWGQGTQVTVSS property_label="polyreactivity (PSR sort gate)" recorded_result="low polyreactivity"
residues=QVQLVESGGGLVQAGGSLRLSCAASGRTFYPYAMGWYRQATGKERELVAAIDYSSATTYYADSVKGRFTISRDNAKNTVYLQMNSLKPEDTAVYYCARVGIGVGWSKLNYWGQGTQVTVSS property_label="polyreactivity (PSR sort gate)" recorded_result="low polyreactivity"
residues=QVQLVESGGGLVQAGGTLRLSCAASGSTFVGYAMGWYRQAPGKERELVAAISSSGSTNYADSVKGRFTISRDNAKNTVYLQMNSLKPEDTAVYYCAALYSYFWLIIDYGYWGQGTQVTVSS property_label="polyreactivity (PSR sort gate)" recorded_result="low polyreactivity"

* * *

assay: yeast display, Sf9 membrane polyspecificity reagent, FACS + sequencing; frameworks hold sequencing errors
property_label: polyreactivity (PSR sort gate)

residues=QVQLVETGGGLVQAGGSLRLSCAASGSIFIWYAMGWYRQAPGKERELVAAIRSGGSTYYADSVKGRFTISRDNAKNTVYFQMNRLKPEDTAVYYCAKVLSWRGNRYNYWGQGTQVTVSS recorded_result="low polyreactivity"
residues=QVQLVESGGGLVQAGGSLRLSCAASGRIFYNNVMGWYRQAPGKERELVAAISGNGGSTYYADSVKGRFTISRDNAKNTVYLQMNSLKPEDTAVYFCAADDLYTDYETWWRRGDYWGQGTQVTVSS recorded_result="low polyreactivity"
residues=QVQLEESAGGLVQAGGSLRLSCAASGSIFFFYAKGRYREAPGKERELVAAITGSGGSTYYADSVKGRFTISRVNAKNTVYLQMNSLKPEDTAVYDCAFRTSRQVYSYAGYESWGQGTHVTVSS recorded_result="low polyreactivity"

* * *

experiment: yeast display, Sf9 membrane polyspecificity reagent, FACS + sequencing; frameworks hold sequencing errors
property_label: polyreactivity (PSR sort gate)

residues=QVQLVESGGGLVQAGGSLRLSCAASGRTFGRKAMGWYRQAPGKERELVAAIARSGASTYYADSVKGRFTISRDNAKNTVYLQMNSLNPEDTAVYYCAKDVWGSRYAYDYWGQGTQVTVSS recorded_result="low polyreactivity"
residues=QVELVESGGGLVQAGGSLRLSCAASGFIFTYYAMGWYSQAPWKERELVATISSGGGSTYYADSVKGRFTISRDNAKNTVYLQMYSLNPEDTAVYYCAASRRITGIRYINRYAYWGQGTQVTVSS recorded_result="high polyreactivity"
residues=QVQLVESGGLLVQAGGSLRLTCAASGSTFGRNAMGWYRQATGKERQLVAAITASGGTTYYADSVKGRFTISRDNAKNTVYLHMNSLKPEDTAVYDCARAGHFSFKYDYWGQGTQVTVSS recorded_result="low polyreactivity"
residues=QVQLVESGGGLVQAGGSLRLSCAACGSTFYAYAMGWYRQAPGKERELVAAIDSGGSTYYADSVKGRFTISRYNAKNTVYLEMNSLKPEDTAVYYCAVRHRYTRAYRGRDYWGQGTQVTVSS recorded_result="low polyreactivity"
residues=QVQLVESGGGLVQAGGSLRLSCAASGSIFWYYGMGWYRPAPAKERELVAAISSGGSTNYADSVKGRFAISRDNAKNTVYIQMNSLKPEDTAVYYCAVRFTFPRYPASYSRYYYWGQGTQVTVSS recorded_result="high polyreactivity"
